Where these numbers come from: patent US8048862B2

# TARGET_OR_SYSTEM: NS3/NS4 complexes (Hepatitis C virus genotype 1a, UniProt P27958)
# Sequence (P27958 1027-1657): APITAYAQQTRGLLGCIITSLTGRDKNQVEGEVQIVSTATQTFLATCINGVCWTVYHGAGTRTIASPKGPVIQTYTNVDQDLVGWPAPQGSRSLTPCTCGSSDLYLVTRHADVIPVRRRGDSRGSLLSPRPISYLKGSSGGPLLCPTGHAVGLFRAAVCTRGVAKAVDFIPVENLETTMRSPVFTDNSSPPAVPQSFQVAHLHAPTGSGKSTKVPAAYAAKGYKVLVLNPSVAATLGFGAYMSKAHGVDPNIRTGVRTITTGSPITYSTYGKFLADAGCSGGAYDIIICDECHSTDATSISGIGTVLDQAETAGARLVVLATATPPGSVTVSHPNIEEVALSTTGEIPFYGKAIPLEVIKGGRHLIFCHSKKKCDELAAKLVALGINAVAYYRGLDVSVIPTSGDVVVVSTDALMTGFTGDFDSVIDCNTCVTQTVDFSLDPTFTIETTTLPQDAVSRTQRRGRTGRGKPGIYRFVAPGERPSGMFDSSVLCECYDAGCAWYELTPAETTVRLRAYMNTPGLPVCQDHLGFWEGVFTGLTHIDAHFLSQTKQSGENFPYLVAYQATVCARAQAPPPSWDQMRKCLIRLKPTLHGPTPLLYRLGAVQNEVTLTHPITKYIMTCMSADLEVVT
# Sequence (P27958 1658-1711): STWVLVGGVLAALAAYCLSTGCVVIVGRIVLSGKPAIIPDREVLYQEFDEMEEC
# PROCEDURE_TEXT: NS3/NS4 inhibition activity (IC50)
# Type: biochemical
# PARTICULARS: Table 2, read-out: IC50
pIC50: −log10 of the molar value.
ASSAY_READOUT: pIC50

Worked set:
1) CC1(S(=O)(=O)NC(=O)[C@@]23C[C@H]2/C=C\CCCCC[C@H](Nc2cccc(C(F)(F)F)c2)C(=O)N2C[C@H](Oc4nc5ccccc5s4)C[C@H]2C(=O)N3)CC1 > 8.00
2) CC(C)(C)c1csc(N[C@H]2CCCCC/C=C\[C@@H]3C[C@@]3(C(=O)O)NC(=O)[C@@H]3C[C@@H](Oc4nc5ccccc5s4)CN3C2=O)n1 7.12 to 8.00
3) COc1ccc2c(O[C@@H]3C[C@H]4C(=O)N[C@]5(C(=O)NS(=O)(=O)C6(C)CC6)C[C@H]5/C=C\CCCCC[C@H](Nc5ccccc5C)C(=O)N4C3)cc(-c3nc(C(C)C)cs3)nc2c1C > 8.00
4) Cc1ccc2nc(O[C@@H]3C[C@H]4C(=O)N[C@]5(C(=O)NS(=O)(=O)C6(C)CC6)C[C@H]5/C=C\CCCCC[C@H](Nc5ccccc5)C(=O)N4C3)sc2c1 > 8.00

Turning to the following compound.
Consider the compound `COc1ccc2c(O[C@@H]3C[C@H]4C(=O)N[C@]5(C(=O)NS(=O)(=O)C6CC6)C[C@H]5/C=C\CCCCC[C@H](Nc5cccc(F)c5)C(=O)N4C3)cc(-c3nc(C(C)C)cs3)nc2c1C` and give its measured pIC50.
> 8.00
